ASSAY SYSTEM: human PAR-2 (hPAR-2) receptor (Homo sapiens)
Construct: endogenous in cells
Sequence (P55085 26-397): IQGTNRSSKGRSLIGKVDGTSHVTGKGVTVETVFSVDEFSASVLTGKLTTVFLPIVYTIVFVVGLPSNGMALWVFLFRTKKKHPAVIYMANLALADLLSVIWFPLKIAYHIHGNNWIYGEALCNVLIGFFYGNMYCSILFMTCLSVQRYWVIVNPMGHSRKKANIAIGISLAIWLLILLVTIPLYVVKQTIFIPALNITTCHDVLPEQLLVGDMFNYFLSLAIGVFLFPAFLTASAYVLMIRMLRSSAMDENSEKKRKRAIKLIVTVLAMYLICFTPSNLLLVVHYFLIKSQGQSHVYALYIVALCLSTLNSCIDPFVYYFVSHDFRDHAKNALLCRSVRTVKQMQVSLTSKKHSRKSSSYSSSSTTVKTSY
TEST SUMMARY: In vitro human PAR-2 functional antagonist activity using calcium assays
EXPERIMENTAL SETUP: hPAR-2 endogenously expressed in HEK-293 cells; stimulated by 2-Furoyl-LIGRLO-NH2 peptide; Fluo4AM intracellular calcium, FLIPR Tetra
pIC50: −log10 of the molar value.
TEST READOUT: pIC50

Prompt: Reported pIC50, compound Cc1cc(N2CCN(C(=O)c3cnc4c(n3)C(C)(C)CN4c3ccc(F)c(F)c3)C(C)(C)C2)nc(C)c1C(=O)O [Example 181] : ____
Completion: > 6.30

Prompt: I have this compound here, Cc1ccc(N2CC(C)(C)c3nc(C(=O)N4CCN(c5ccc(CC(=O)O)cn5)CC4(C)C)cnc32)cc1Cl [Example 251] , and I need its recorded pIC50.
Completion: > 6.30

Prompt: Request the reported pIC50 associated with CC1(C)CN(c2ccc(Cl)c(F)c2)c2ccc(C(=O)N3CCN(c4nncs4)CC3(C)C)nc21 [Example 67]
Completion: > 6.30

Prompt: Give its pIC50 value. Item: CC1(C)CN(c2ccc(Cl)c(F)c2)c2ccc(C(=O)N3CCC(CC(=O)O)CC3)nc21 [Example 35]
Completion: 5.00 to 6.30

Prompt: I have this compound here, Cc1cc(N2CCN(C(=O)c3cnc4c(n3)C3(CN4c4ccc(Cl)c(F)c4)CC(C)(C)C3)C(C)(C)C2)nc(C)c1C(=O)O [Example 247] , and I need its recorded pIC50.
Completion: > 6.30

Prompt: Item CO[C@@H]1CN(C(=O)c2ccc3c(n2)C(C)(C)CN3c2ccc(Cl)c(F)c2)CC[C@@H]1CC(=O)O [Example 98] has what recorded pIC50?
Completion: 5.00 to 6.30

Prompt: Please give the measured pIC50 for this compound: CC1(C)CN(c2ccc(Cl)c(F)c2)c2ccc(C(=O)N3CCN(C(=O)CCC(=O)O)CC3(C)C)nc21 [Example 26]
Completion: 5.00 to 6.30

Prompt: Given the entry CC1(C)CN(c2ccc(Cl)c(F)c2)c2ncc(C(=O)N3CCN(c4ccc(CC(=O)O)cn4)CC3(C)C)nc2O1 [Example 268] , report its measured pIC50.
Completion: < 5.00

Prompt: Which pIC50 is reported for this compound? CC1(C)C(=O)NCCN1C(=O)c1ccc2c(n1)C1(CCCC1)C(=O)N2c1ccc(Cl)c(F)c1 [Example 2]
Completion: 5.00 to 6.30

Prompt: Report pIC50 for CC1(C)CN(c2ccc(Cl)c(F)c2)c2ccc(C(=O)N3CCN(c4ccc(CC(=O)O)nc4)CC3(C)C)nc21 [Example 117] please.
Completion: > 6.30

Prompt: Returns the measured pIC50 for the input compound. Input: CC1(C)CN(c2ccc(Cl)c(F)c2)c2ccc(C(=O)N3CCC(C(=O)O)CC3)nc21 [Example 33]
Completion: 5.00 to 6.30

Prompt: // pIC50 lookup, key: CC1(C)CN(c2ccc(CC(=O)O)cn2)CCN1C(=O)c1ccc2c(n1)C1(CN2c2ccc(Cl)c(F)c2)CC(F)(F)C1 [Example 128]
Completion: > 6.30

Prompt: Consider the compound Cc1cc(N2CCN(C(=O)c3ccc4c(n3)C3(CN4c4ccc(Cl)c(F)c4)CC(C)(C)C3)C(C)(C)C2)nc(C)c1C(=O)O [Example 215] and give its measured pIC50.
Completion: > 6.30

Prompt: Recorded pIC50 of CC(C(=O)O)c1ccc(N2CCN(C(=O)c3ccc4c(n3)C(C)(C)CN4c3ccc(Cl)c(F)c3)C(C)(C)C2)nc1 (centres unmarked) [Example 160] , please.
Completion: > 6.30

Taken from patent US20250320224A1.
